Below: a set of entries, each annotated with reported yeast fitness.
B1: tRNA (parent)
chain: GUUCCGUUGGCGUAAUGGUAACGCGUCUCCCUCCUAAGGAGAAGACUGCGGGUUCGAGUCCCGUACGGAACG

Variants of: B1
Experiment: yeast fitness relative to wild type (ratio to wild type); higher = fitter; tRNA-Arg(CCU), competitive growth, 37 C, YPD
This sample holds only a part of the variants without activity.

As a guide, the following entries are already answered.
Variant string	yeast fitness
C49U U53A G68A	≤ 0.5
A20C C49G G67A	0.59
U7G C11G C33G G56C C62G	≤ 0.5
A15C A21U G23A	≤ 0.5
U3A U16C U19C C46U	≤ 0.5
C31U G52C U54A C66U	≤ 0.5
G23A U26G A65C	≤ 0.5
U8A G17A U19C	0.586

Q: Look up yeast fitness of C22U A36U C62G G63A and report it.
Result: ≤ 0.5

Q: Look up yeast fitness of C11G C31G C34U A40C and report it.
Result: ≤ 0.5

Q: Look up yeast fitness of C22G C30G G50A A57U and report it.
Result: ≤ 0.5

Q: Look up yeast fitness of A21C C62G and report it.
Result: 0.723

Q: Look up yeast fitness of C31A A43G A70U and report it.
Result: 0.708

Q: Look up yeast fitness of U16G C62U and report it.
Result: 0.853

Q: Look up yeast fitness of C4U G23A G56C A57G G68A and report it.
Result: ≤ 0.5

Q: Look up yeast fitness of A40U C61U and report it.
Result: 0.783
